RBC lysis IC50, strain O1-52/66 by entry:
assay_system: native PcrV on live Pseudomonas aeruginosa (strains O6-57/66, O11-PA103, O1-52/66, O16-177/81) (Pseudomonas aeruginosa)
assay_method_text: cell-based or functional assay
Only the number, expressed in µg/mL, is required.

# binder, unit_abbrev, endpoint_result
measured = [
    ("7C1 (antibody, V domains shown, also called optimized anti-PcrV mAb clone 7C1) VH: EVQLLESGGGLVQPGGSLRLSCTASGFTFSDNHMSWVRQAPGKGLDWVSGISESGGSTNYADSVKGRFSTSRDNSKSTLYLDMNSLRAEDTAIYYCAKGRFSTSSSHFYRAVYGMDVWGQGTAVTVSS VL: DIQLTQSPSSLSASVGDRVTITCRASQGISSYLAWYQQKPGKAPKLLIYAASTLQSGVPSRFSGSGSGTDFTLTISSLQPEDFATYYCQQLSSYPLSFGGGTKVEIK", "µg/mL", 0.367),
    ("7B1 (antibody, V domains shown, also called 7B1-IgG1; 7B1 mAb) VH: EVQLLESGGGLVQPGGSLRLSCTASGFTFSDNYMSWVRQAPGKGLDWVSVISESGGSTNYADSVKGRFSTSRDNSKSTLYLDMNSLRAEDTAIYYCAKGRFSTLSSHFFRAVYGMDVWGQGTAVTVSS VL: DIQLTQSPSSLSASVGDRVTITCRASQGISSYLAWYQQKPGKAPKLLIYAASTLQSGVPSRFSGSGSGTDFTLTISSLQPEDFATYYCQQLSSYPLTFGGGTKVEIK", "µg/mL", 0.308),
    ("13-42 mAb (antibody, V domains shown) VH: EVQLLESGGGLVQPGGSLRLSCTASGFTFSDYPMSWVRQAPGKGLDWVSGISESGGSTNDADSVKGRFSTSRDNSKSTLYLDMNSLRAEDTAIYYCAKGRFCTNSSCFFRAVYGMDVWGQGTAVTVSS VL: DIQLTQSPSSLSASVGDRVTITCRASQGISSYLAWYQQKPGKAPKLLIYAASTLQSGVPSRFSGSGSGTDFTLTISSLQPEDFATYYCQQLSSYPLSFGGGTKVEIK", "µg/mL", 0.472),
]

Below: the item to evaluate.
# RBC lysis IC50, strain O1-52/66 (binder: 8C1 (antibody, V domains shown, also called optimized anti-PcrV mAb clone 8C1) VH: EVQLLESGGGLVQPGGSLRLSCTASGFTFSDNHMSWVRQAPGKGLDWVSGISESGGSTNYADSVKGRFSTSRDNSKSTLYLDMNSLRAEDTAIYYCAKGRFSTNSAHFFRAVYGMDVWGQGTAVTVSS VL: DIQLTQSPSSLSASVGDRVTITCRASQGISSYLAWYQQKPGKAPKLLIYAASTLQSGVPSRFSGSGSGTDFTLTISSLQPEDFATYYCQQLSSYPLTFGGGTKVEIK ) is 0.424
